Target: T1, PCSK9 protein (UniProt Q8NBP7 31-692, limits assumed)
T1 construct: Kit reagent; also called proprotein convertase subtilisin/kexin type 9
Test: PCSK9-LDLR in vitro binding assay kit, OD450/540; peptide 100 µM; inhibition of PCSK9 binding to LDLR
Bridge positions count the residues as written; N and C are the ends. Ends that are not written are not given here.
EXPERIMENTAL_ENDPOINT: Inhibitory rate (%)

[[record]]
binder = "TVFTSWEEALDWVGICTASIPPICQ-OH (disulfide 16-24 (inferred), Contains an anti-elastase scaffold, with a disulfide bond between its two Cys) [PCSK9_2EC]"
readout_value = 100

[[record]]
binder = "WEEYLDYVGFCTYSIPPQCYGTVFTS (disulfide 11-19 (inferred), Contains an anti-chymotrypsin scaffold, with a disulfide bond between its two Cys) [PCSK9_6CH]"
readout_value = 93.7

[[record]]
binder = "TVFTSGICTASIPPICQWEEYLDWV (disulfide 8-16 (inferred), Contains an anti-elastase scaffold, with a disulfide bond between its two Cys) [PCSK9_9EC]"
readout_value = 101

